Hey, just so you know, these numbers are from patent EP1972611A1.

Each record here notes measured inhibition at 3 µg/mL.
Test system: MCF-7 cell
Test: Inhibition of MCF-7 cell growth (MTT method)
Type: cell-based
Conditions: Homo sapiens, MCF7; MCF-7 cells, 3.0 µg/ml, 48 hours
Experimental: Cell lines of COC1, SMMC-7721, MCF-7and HT-29 were purchased from Chinese storage center for typical culture. Cells were cultured in RPMI1640 with 10% FCS at 37°C and 5% of CO2. Cells at log phase were harvested for the experiment. Cells growth inhibition was measured with MTT method. […] After aspirating supernatant, 100µl DMSO were added to each well and the optical density were measured at 490nm. […] The IR was analyzed using Calcusyn program to determine the IC50 of each drug
Entry rule: numbers only, all in %.

Sample answers from the record:
{"compound": "COc1ccc(C2c3cc(OC)c(OC)cc3C=C(C=O)C2CO)cc1OC (stereo not drawn) [VB-6]", "inhibition at 3 µg/mL, %": 41.2}
{"compound": "COc1cc([C@H]2c3cc(O)c(OC)cc3C=C(CO)[C@@H]2CO)ccc1O [VB-4]", "inhibition at 3 µg/mL, %": 13.2}
{"compound": "COc1cc([C@H]2c3c(ccc(O)c3OC)C=C(C=O)[C@@H]2CO)ccc1O [VB-2]", "inhibition at 3 µg/mL, %": 26.4}

Can you look up the measured inhibition at 3 µg/mL of COc1cc([C@H]2c3cc(O)c(OC)cc3C=C(C=O)[C@@H]2CO)ccc1O [VB-1] for me?
13.8

Query COc1cc([C@H]2c3cc(O)c(OC)cc3C=C(C=O)[C@@H]2CO[C@@H]2O[C@H](CO)[C@@H](O)[C@H](O)[C@H]2O)ccc1O [VB-3] next
18.5

Query COc1cc2c(cc1O)[C@H](c1ccc(O[C@@H]3O[C@H](C(=O)O)[C@@H](O)[C@H](O)[C@H]3O)c(OC)c1)[C@@H](CO)C(C=O)=C2 [VB-5] next
13.6
